system: Serum osteocalcin; assay: Serum osteocalcin suppression, 28-day repeat dose mouse model; type: in vivo, mice; conditions: Mus musculus, 672 h; mice, oral gavage 28 days, serum osteocalcin
Documented ED50 across a set of compounds

| COMPOUND | ED50, mg/kg |
| --- | --- |
| Cc1c(NC(=O)c2ccc3c(c2)CC[C@@H]2C[C@@](O)(C(F)(F)F)CC[C@@]32Cc2ccccc2)ccc[n+]1[O-] [Comparator G] | 1.12 |
| C[C@]12C=CC(=O)C=C1CC[C@@H]1[C@@H]2[C@@H](O)C[C@@]2(C)[C@H]1CC[C@]2(O)C(=O)CO [Prednisolone] | 1 |
| Cc1ccncc1NC(=O)c1ccc2c(c1)CC[C@@H]1C[C@@](O)(C(F)(F)F)CC[C@@]21Cc1ccccc1 [Comparator D] | 1.18 |
| Cc1ncccc1NC(=O)c1ccc2c(c1)CC[C@@H]1C[C@@](O)(C(F)F)CC[C@@]21Cc1ccccc1 [Comparator H] | 0.51 |
| Cc1ncccc1NC(=O)c1ccc2c(c1)CC[C@@H]1C[C@@](O)(CCC(F)(F)F)CC[C@@]21Cc1ccccc1 [Comparator C] | 1.01 |
| Cc1ncc(NC(=O)c2ccc3c(c2)CC[C@@H]2C[C@@](O)(CCC(F)(F)F)CC[C@@]32Cc2ccccc2)c(C)n1 [Comparator J] | 0.73 |
| Cc1ncccc1NC(=O)c1ccc2c(c1)C=C[C@@H]1C[C@@](O)(C(F)(F)F)CC[C@@]21Cc1ccccc1 [Comparator I] | 5.2 |
| Cc1ncccc1NC(=O)c1ccc2c(c1)C(=O)C[C@@H]1C[C@@](O)(C(F)(F)F)CC[C@@]21Cc1ccccc1 [Comparator E] | 0.17 |
| Cc1ncccc1CNC(=O)c1ccc2c(c1)CC[C@@H]1C[C@@](O)(CCC(F)(F)F)CC[C@@]21Cc1ccccc1 [Comparator A] | 37 |
| Cc1ncccc1NC(=O)c1ccc2c(c1)[C@H](O)C[C@@H]1C[C@@](O)(C(F)(F)F)CC[C@@]21Cc1ccccc1 [Comparator F] | 1.19 |
| Cc1cnc(NC(=O)c2ccc3c(c2)CC[C@@H]2C[C@@](O)(C(F)(F)F)CC[C@@]32Cc2ccccc2)c(C)n1 [Comparator B] | 2.39 |
